Target: UniProt:P21554
Sequence (P21554 whole entry): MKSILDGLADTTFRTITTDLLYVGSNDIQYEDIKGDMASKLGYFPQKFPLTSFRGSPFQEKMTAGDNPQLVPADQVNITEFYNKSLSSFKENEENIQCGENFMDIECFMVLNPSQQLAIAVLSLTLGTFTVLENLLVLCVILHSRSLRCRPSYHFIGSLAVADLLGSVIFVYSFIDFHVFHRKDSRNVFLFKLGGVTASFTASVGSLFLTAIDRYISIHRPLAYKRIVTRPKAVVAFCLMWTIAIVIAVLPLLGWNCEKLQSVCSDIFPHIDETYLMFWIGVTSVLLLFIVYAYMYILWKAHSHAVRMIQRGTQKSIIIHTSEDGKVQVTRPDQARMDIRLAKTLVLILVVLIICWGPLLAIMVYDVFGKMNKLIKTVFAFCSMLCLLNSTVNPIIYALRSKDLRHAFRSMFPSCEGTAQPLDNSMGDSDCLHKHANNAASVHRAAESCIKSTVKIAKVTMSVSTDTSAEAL
Test: Agonist activity at human cannabinoid CB1 receptor expressed in CHO cells by luciferase reporter gene assay
pEC50: −log10 of the molar value.
The entries below are paired with their reported pEC50.
MEASUREMENT LABEL: pEC50

>>> print(df.to_string())
                                   compound  experimental_result
0  Clc1cccc2c(-c3noc(CN4CCCC4)n3)cn(CC3CCOCC3)c12                 7.00
1  COCCN(C)Cc1nc(-c2cn(CC3CCOCC3)c3c(Cl)cccc23)ns1                 7.10
2  O=C(NCCO)C1CCN(Cc2nc(-c3cn(CC4CCOCC4)c4c(Cl)cccc34)no2)CC1                 6.90
3  CN(CCO)Cc1nc(-c2cn(CC3CCOCC3)c3c(Cl)cccc23)ns1                 7.10
4  O=C(O)C1CCCN1Cc1nc(-c2cn(CC3CCOCC3)c3c(Cl)cccc23)ns1 (stereo not given)                 6.80

---

Assay: Aqueous solubility of the compound at pH 7.4
Format: physicochemical
Details: aqueous medium
Below: a set of entries, each annotated with reported solubility.
MEASUREMENT LABEL: solubility

                                chem_smiles  measurement_label  experimental_result
0  CN(CCO)Cc1nc(-c2cn(CC3CCOCC3)c3c(Cl)cccc23)ns1         solubility            < 1 µg/mL
1  COCCN(C)Cc1nc(-c2cn(CC3CCS(=O)(=O)CC3)c3c(Cl)cccc23)ns1         solubility            < 1 µg/mL
2  CCNC(=O)NCc1nc(-c2cn(CC3CCOCC3)c3c(Cl)cccc23)no1         solubility            < 1 µg/mL
